Tested on: 997537-175-T-J1-PDC complex spheroid viability
Assay: Anticancer human tumor 997537-175-T-J1-PDC patient-derived colon adenocarcinoma cell line growth inhibition [GQUAD]
Conditions: second compound 1 µM; first compound 1 µM; active compounds read low
From the text: DNA G-quadruplex Stabilizer Agents in Combinations in Complex Spheroids A high-throughput screen of multi-cell type tumor spheroids was designed to identify active combinations of DNA G-quadruplex stabilizer agents and targeted small molecules. […] Compounds. […] If the clinical Cmax for an agent had not been determined, the highest concentration tested was 10 microM. […]
QUANTITY_KIND: viability, T/C (%)
Please respond with the number in % and leave the unit unwritten.

compound="Nc1ccn(C2OC(CO)C(O)C2(F)F)c(=O)n1 (stereo not given) + CN(C)c1ccc(Nc2c3ccc(NC(=O)CCN4CCCC4)cc3nc3cc(NC(=O)CCN4CCCC4)ccc23)cc1" quantity_kind="viability, T/C" data_value=87.5
compound="O=C(c1cc(Cc2n[nH]c(=O)c3ccccc23)ccc1F)N1CCN(C(=O)C2CC2)CC1 + CN(C)c1ccc(Nc2c3ccc(NC(=O)CCN4CCCC4)cc3nc3cc(NC(=O)CCN4CCCC4)ccc23)cc1" quantity_kind="viability, T/C" data_value=85.6

Request: Give the value of viability, T/C reported for the following: CC(=O)O[C@H]1C(=O)[C@@]2(C)[C@H]([C@H](OC(=O)c3ccccc3)[C@]3(O)C[C@H](OC(=O)[C@H](O)[C@@H](NC(=O)c4ccccc4)c4ccccc4)C(C)=C1C3(C)C)[C@]1(OC(C)=O)CO[C@@H]1C[C@@H]2O + Cc1cnc(CNC(=O)c2c(=O)c3ccc(N4CCCN(C)CC4)nc3n3c2sc2ccccc23)cn1
Response: 60.5

Request: Given COc1ccc([C@@H](O)c2cc(-c3ncnc4cc(N5CCOCC5)ccc34)c(F)cc2Cl)nn1 + Cc1cnc(CNC(=O)c2c(=O)c3ccc(N4CCCN(C)CC4)nc3n3c2sc2ccccc23)cn1 , respond with its viability, T/C.
Response: 87.8

Request: Recall and state the measured viability, T/C for CC1COCCN1c1cc(C2(S(C)(=N)=O)CC2)nc(-c2ccnc3[nH]ccc23)n1 (stereo not given) + CN(C)c1ccc(Nc2c3ccc(NC(=O)CCN4CCCC4)cc3nc3cc(NC(=O)CCN4CCCC4)ccc23)cc1 .
Response: 75.8

====

Tested on: 997537-175-T-J1-PDC complex spheroid viability
Experiment: Anticancer human tumor 997537-175-T-J1-PDC cell line growth inhibition [GQUAD];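 further: spheroids exposed to the agents for 7 days; 100% = DMSO vehicle control viability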
Settings: second compound 0.0316 µM; first compound 0.00999 µM; active compounds read low
Some compounds, each annotated with its measured viability, T/C.
Write it as a number; the unit % goes unstated.

compound="CCc1c2c(nc3ccc(O)cc13)-c1cc3c(c(=O)n1C2)COC(=O)[C@]3(O)CC + CN(C)c1ccc(Nc2c3ccc(NC(=O)CCN4CCCC4)cc3nc3cc(NC(=O)CCN4CCCC4)ccc23)cc1" quantity_kind="viability, T/C" data_value=58.6
compound="Cn1ncnc1[C@H]1c2n[nH]c(=O)c3cc(F)cc(c23)N[C@@H]1c1ccc(F)cc1 + CN(C)c1ccc(Nc2c3ccc(NC(=O)CCN4CCCC4)cc3nc3cc(NC(=O)CCN4CCCC4)ccc23)cc1" quantity_kind="viability, T/C" data_value=106
compound="Cc1[nH]c2ccccc2c1CCNCc1ccc(/C=C/C(=O)NO)cc1 + Cc1[nH]c2ccc(F)cc2c1-c1nc2c3cccnc3c3ncccc3c2[nH]1" quantity_kind="viability, T/C" data_value=100

Request: Supply viability, T/C value. Item: CC[C@@]1(O)C(=O)OCc2c1cc1n(c2=O)Cc2cc3c(CN(C)C)c(O)ccc3nc2-1 + CN(C)c1ccc(Nc2c3ccc(NC(=O)CCN4CCCC4)cc3nc3cc(NC(=O)CCN4CCCC4)ccc23)cc1
Response: 86.4

Request: Fill in reported viability, T/C for this entry: Cc1[nH]c2ccccc2c1CCNCc1ccc(/C=C/C(=O)NO)cc1 + CN(C)c1ccc(Nc2c3ccc(NC(=O)CCN4CCCC4)cc3nc3cc(NC(=O)CCN4CCCC4)ccc23)cc1
Response: 85

Request: Identify the reported viability, T/C for the following entry. CCc1c2c(nc3ccc(O)cc13)-c1cc3c(c(=O)n1C2)COC(=O)[C@]3(O)CC + Cc1cnc(CNC(=O)c2c(=O)c3ccc(N4CCCN(C)CC4)nc3n3c2sc2ccccc23)cn1
Response: 50.2

====

System: 997537-175-T-J1-PDC complex spheroid viability
Assay: Anticancer human tumor 997537-175-T-J1-PDC cell line growth inhibition [GQUAD];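 further: spheroids exposed to the agents for 7 days; 100% = DMSO vehicle control viability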
Conditions: second compound 0.1 µM; first compound 0.1 µM; active compounds read low
QUANTITY_KIND: viability, T/C (%)
Express it in %; write the number only.

molecule="Cc1cccc(N(C)C(=O)C2C(O)CCN2c2nc(C)cc(C(F)(F)F)c2C#N)c1 (stereo not given) + CN(C)c1ccc(Nc2c3ccc(NC(=O)CCN4CCCC4)cc3nc3cc(NC(=O)CCN4CCCC4)ccc23)cc1" system_tested="997537-175-T-J1-PDC complex spheroid viability" data_value=85.9
molecule="CC1COCCN1c1cc(C2(S(C)(=N)=O)CC2)nc(-c2ccnc3[nH]ccc23)n1 (stereo not given) + Cc1[nH]c2ccc(F)cc2c1-c1nc2c3cccnc3c3ncccc3c2[nH]1" system_tested="997537-175-T-J1-PDC complex spheroid viability" data_value=86.2
molecule="O=C(NO)c1cnc(N2CCN(S(=O)(=O)c3ccc4ccccc4c3)CC2)nc1 + Cc1[nH]c2ccc(F)cc2c1-c1nc2c3cccnc3c3ncccc3c2[nH]1" system_tested="997537-175-T-J1-PDC complex spheroid viability" data_value=56.2

Request: Return the recorded viability, T/C value; entry: COc1ccc([C@@H](O)c2cc(-c3ncnc4cc(N5CCOCC5)ccc34)c(F)cc2Cl)nn1 + Cc1cnc(CNC(=O)c2c(=O)c3ccc(N4CCCN(C)CC4)nc3n3c2sc2ccccc23)cn1
Response: 94.7

Request: Tell me its viability, T/C given COc1cc(C2c3cc4c(cc3C(OC3OC5COC(C)OC5C(O)C3O)C3COC(=O)C23)OCO4)cc(OC)c1O (stereo not given) + Cc1cnc(CNC(=O)c2c(=O)c3ccc(N4CCCN(C)CC4)nc3n3c2sc2ccccc23)cn1 as the entry.
Response: 96.5

====

Tested on: 997537-175-T-J1-PDC complex spheroid viability
Experiment: Anticancer human tumor 997537-175-T-J1-PDC cell line growth inhibition [GQUAD];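 further: spheroids exposed to the agents for 7 days; 100% = DMSO vehicle control viability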
Conditions: second compound 0.0316 µM; first compound 1 µM; active compounds read low
From the text: DNA G-quadruplex Stabilizer Agents in Combinations in Complex Spheroids A high-throughput screen of multi-cell type tumor spheroids was designed to identify active combinations of DNA G-quadruplex stabilizer agents and targeted small molecules. […] Compounds. […] If the clinical Cmax for an agent had not been determined, the highest concentration tested was 10 microM. […]
Criterion: viability, T/C strictly under 70%. Met: label 1. Not met: label 0.

molecule="Nc1ccn(C2OC(CO)C(O)C2(F)F)c(=O)n1 (stereo unspecified) + CN(C)c1ccc(Nc2c3ccc(NC(=O)CCN4CCCC4)cc3nc3cc(NC(=O)CCN4CCCC4)ccc23)cc1" assigned_category="label 1"
molecule="C=CC(=O)N1CCN(c2nc(=O)n(-c3c(C)ccnc3C(C)C)c3nc(-c4c(O)cccc4F)c(F)cc23)C(C)C1 (stereo unspecified) + Cc1[nH]c2ccc(F)cc2c1-c1nc2c3cccnc3c3ncccc3c2[nH]1" assigned_category="label 0"
molecule="CC(C)(O)C1CCC(Nc2ccc3ncc(-c4cccc(C(F)(F)F)c4)n3n2)CC1 (stereo unspecified) + CN(C)c1ccc(Nc2c3ccc(NC(=O)CCN4CCCC4)cc3nc3cc(NC(=O)CCN4CCCC4)ccc23)cc1" assigned_category="label 1"

Request: Determine if COc1cc(C2c3cc4c(cc3C(OC3OC5COC(C)OC5C(O)C3O)C3COC(=O)C23)OCO4)cc(OC)c1O (stereo unspecified) + Cc1cnc(CNC(=O)c2c(=O)c3ccc(N4CCCN(C)CC4)nc3n3c2sc2ccccc23)cn1 shows viability, T/C strictly lower than 70%.
Response: label 1

====

Test system: 997537-175-T-J1-PDC complex spheroid viability
Experiment: Anticancer human tumor 997537-175-T-J1-PDC cell line growth inhibition [GQUAD];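 further: spheroids exposed to the agents for 7 days; 100% = DMSO vehicle control viability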
Conditions: second compound 3.16 µM; first compound 0.000999 µM; active compounds read low
QUANTITY_KIND: viability, T/C

Solved cases (3 shown):
molecule="Cc1[nH]c2ccccc2c1CCNCc1ccc(/C=C/C(=O)NO)cc1 + Cc1[nH]c2ccc(F)cc2c1-c1nc2c3cccnc3c3ncccc3c2[nH]1" quantity_kind="viability, T/C" data_value=93.2%
molecule="Cn1ncnc1[C@H]1c2n[nH]c(=O)c3cc(F)cc(c23)N[C@@H]1c1ccc(F)cc1 + Cc1cnc(CNC(=O)c2c(=O)c3ccc(N4CCCN(C)CC4)nc3n3c2sc2ccccc23)cn1" quantity_kind="viability, T/C" data_value=104%
molecule="CCc1c2c(nc3ccc(O)cc13)-c1cc3c(c(=O)n1C2)COC(=O)[C@]3(O)CC + Cc1[nH]c2ccc(F)cc2c1-c1nc2c3cccnc3c3ncccc3c2[nH]1" quantity_kind="viability, T/C" data_value=69%

Request: Quick one: give measured viability, T/C for CCc1c2c(nc3ccc(O)cc13)-c1cc3c(c(=O)n1C2)COC(=O)[C@]3(O)CC + CN(C)c1ccc(Nc2c3ccc(NC(=O)CCN4CCCC4)cc3nc3cc(NC(=O)CCN4CCCC4)ccc23)cc1
Response: 75%

Request: Give the measured viability, T/C for CC[C@@]1(O)C(=O)OCc2c1cc1n(c2=O)Cc2cc3c(CN(C)C)c(O)ccc3nc2-1 + Cc1cnc(CNC(=O)c2c(=O)c3ccc(N4CCCN(C)CC4)nc3n3c2sc2ccccc23)cn1
Response: 75%
